Quick reference: P20511-014-3 CHI (IAM) of the listed items.
assay details: IAM chromatography on new IAM.PC.DD2 columns (gradient HPLC, CHI (IAM))
Format: physicochemical
condition parameters: new IAM.PC.DD2 column batch P20511-014-3, pH 7.4
Response field accepts a number only; no unit should be typed.

Worked cases, answers included:
compound	P20511-014-3 CHI (IAM)
CCN(CC)CCNC(=O)c1ccc(NC(C)=O)cc1 [Acecainide]	17.57
CCOC(=O)C1=C(C)NC(C)=C(C(=O)OC)C1c1cccc([N+](=O)[O-])c1 (centres unmarked) [Nitrendipine]	39.19
CC(C)(C)NCC(O)COc1cccc2c1CC(O)C(O)C2 (centres unmarked) [Nadolol]	19.23

// field: P20511-014-3 CHI (IAM); key: COC(=O)C1=C(C)NC(C)=C(C(=O)OC(C)C)C1c1cccc2nonc12 (centres unmarked) [Isradipine] ; value = 39.16

// field: P20511-014-3 CHI (IAM); key: O=C1C(CC[S+]([O-])c2ccccc2)C(=O)N(c2ccccc2)N1c1ccccc1 (centres unmarked) [Sulfinpyrazone] ; value = 26.89
